Some compounds, each annotated with its measured IC50.
experimental target: SMN Tudor domain (Homo sapiens)
Sequence (Q16637 84-147): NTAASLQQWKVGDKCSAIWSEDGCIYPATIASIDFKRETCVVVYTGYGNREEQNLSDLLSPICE
assay comment: AlphaScreen, SMN Tudor domain / sDMA-peptide interaction
A number alone suffices; assume µM.

Below: 3 compounds and their reported IC50.
{"compound": "O=C(O)c1ccc(C(=O)Nc2nc(-c3ccccn3)cs2)cc1 [compound 26]", "value unit": "µM", "experimental value": 3.38}
{"compound": "CN(C)S(=O)(=O)c1ccc(C(=O)Nc2nc(-c3ccccn3)cs2)cc1 [compound 1]", "value unit": "µM", "experimental value": 0.88}
{"compound": "CC1NC(=O)NC1CCCCCC(=O)OCC(=O)c1ccccc1 (centres unmarked) [Fig. 4h]", "value unit": "µM", "experimental value": 4}

Here is the next item to consider.
For reference, reported IC50 for COc1ccccc1-c1csc(NC(=O)c2ccc(S(=O)(=O)N(C)C)cc2)n1 [compound 5] stands at 1.7
